Each recorded value in this set is attributed to patent US20170334973A1.

Target: MARV GPddmuc (Marburg virus (MARV), UniProt P35253 19-648)
Assay: native ELISA
measured_endpoint: binding result

binder | data_value
FVM22 (antibody, V domains shown) VH: EVQLVQSGAEVKRPGESLTISCKTSGYSFTDSWVAWVRQMPGKGLEWLGSIYPGDSETKYNPSFQGHVTISADKSISTAYLQWSSLKASDTATYYCAKGSETWGQGVLVTVSS VL: SSGLTQPASLSASPGASASLTCTFSGGINVAGYNILWYQQKAGSPPRYLLRYKSDSTKDQGSGVPSRFSGSKDASANTGILRISGLQSEDEADYYCAIGHSSGWIFGGGTRLTVL | no binding
FVM31 (antibody, V domains shown) VH: QVQLVQSGAEVKRPGESLTISCKTSGYSFTDSWVAWVRQMPGKGLEWLGSIYPGDSDARYNPSFQGHVTISADTSVTTTYLKWSSLKASDTATYYCVKGSETWGQGVLVTVSS VL: KPMLTQPASLSASPGASASLTCTFSGGINVAGYNILWYQQKAGSPPRYLLRYKSDSTKDQGSGVPSRFSGSKDASANTGILRISGLQSEDEADYYCAIGHSSGWIFGGGTRLTVL | no binding
FVM14 (antibody, V domains shown) VH: EVQLVQSGAEVKRPGESLKISCQTSGYSFTSTWITWVRQMPGKGLEWLGSIYPGDSETKYNPSFQGHVTISADKSISTTYLQWNSLKASDTATYYCVKGSETWGQGVLVTVSS VL: QAVVTQPASLSASPGASASLTCTFSGGINVAGYNILWYQQKAGSPPRYLLRYKSDSTKDQGSGVPSRFSGSKDASANTGILRISGLQSEDEADYYCAIGHSSGWIFGGGTRLTVL | no binding
